Measured pKi, listed per entry for reference.
test_system: T1, Human CXCR7 (human, UniProt P25106 1-362)
T1 construct: see assay field; also called hCXCR7
T1 sequence (P25106 whole entry): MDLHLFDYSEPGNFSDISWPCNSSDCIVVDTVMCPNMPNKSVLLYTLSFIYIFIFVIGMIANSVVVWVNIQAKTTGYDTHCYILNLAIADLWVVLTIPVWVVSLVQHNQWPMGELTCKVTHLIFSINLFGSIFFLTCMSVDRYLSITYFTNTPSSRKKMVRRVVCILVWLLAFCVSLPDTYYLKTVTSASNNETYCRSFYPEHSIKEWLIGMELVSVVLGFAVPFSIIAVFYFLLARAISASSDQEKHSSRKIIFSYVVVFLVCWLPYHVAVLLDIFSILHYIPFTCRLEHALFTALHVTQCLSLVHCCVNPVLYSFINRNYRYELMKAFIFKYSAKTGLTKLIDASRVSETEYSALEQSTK
test_summary: [125I]-CXCL12 displacement on NIH3T3-hCXCR7 cells
pKi: −log10 of the molar value.

| binder | pKi |
| --- | --- |
| Nanobody 08A05 with Tag-2 (VHH, Purified from E. coli periplasm) VHH: EVQLVESGGGLVQAGDSLRLSCAASGLTFSNYDMGWFRQAPGKEREFVGASWWSGGAPYYSDSVKGRFTISRDNAKNTVYLQANSLRPEDTAVYYCAAKRLRSFASGGSYDYWGQGTQVTVSS | 7.87 |
| Nanobody 07C03 with Tag-2 (VHH, Purified from E. coli periplasm) VHH: EVQLVESGGGLVQAGESLTLSCAASGRTLSAYIMGWFRQAPGKEREFVAGIWSGGYTHLADSAKGRFSISRDNAKNTVYLQMNGLKPEDTAVYYCAAGLRGRQYSNWGQGTQVTVSS | 7.91 |
| Nanobody 08A10 with Tag-2 (VHH, Purified from E. coli periplasm) VHH: EVQLVESGGGLVQAGGSLRLSCAASGSIFSIAAMGWYRQATGKQRELVATITDGGTTTYADSVKGRVTISRDRSANTVYLAMNNLKPDDTAVYYCYAYLRYTSRVPGDNYWGQGTQVTVSS | 7.92 |
